# Test system: Dengue virus
# PROTOCOL NOTES: Inhibition of Dengue virus NS2B-NS3 protease using Abz-NleKRRS-3-(NO2)Y as substrate at 50 uM preincubated for 15 mins measured every sec for 15 mins by fluorimetric analysis
Active and inactive are the calls of the source.
METRIC NAME: inhibition

# SMILES TEXT, SYSTEM UNDER TEST, OBSERVED
data = [
    ("O=C1NC(=S)S/C1=C\\c1c[nH]c2ccccc12", "Dengue virus", "44%"),
    ("O=C1NC(=S)S/C1=C\\c1sccc1Cl", "Dengue virus", "47%"),
    ("COc1ccc(/C=C/C=C2\\SC(=S)NC2=O)cc1", "Dengue virus", "51%"),
    ("O=C1NC(=S)N/C1=C\\C1CCCCC1", "Dengue virus", "30%"),
    ("Cc1ccc(/C=C2\\NC(=O)NC2=O)cc1", "Dengue virus", "inactive"),
]

Q) Give inhibition for C/C(=C1/NC(=S)NC1=O)c1ccc(C2CCCCC2)cc1
A) 12%

Q) Give inhibition for O=C1NC(=S)N/C1=C\c1ccccc1
A) 35%

Q) Give inhibition for O=C1NC(=O)/C(=C/c2ccc(Cl)s2)N1
A) 16%

Q) Give inhibition for COc1ccccc1/C=C1\NC(=S)NC1=O
A) 28%

Q) Give inhibition for O=C1NC(=O)/C(=C/c2sccc2Cl)N1
A) inactive

---

# SYSTEM UNDER TEST: Prothrombin (Bos taurus)
# PROTOCOL NOTES: Inhibition of bovine plasma thrombin using Boc-Val-Pro-Arg-AMC as substrate at 25 uM preincubated for 15 mins measured after 10 mins by fluorimetric assay
Activity calls are given as the source filed them.
METRIC NAME: inhibition

Solved cases (5 shown):
# COMPOUND, SYSTEM UNDER TEST, METRIC NAME, OBSERVED
records = [
    ("O=C1NC(=S)N/C1=C\\c1ccc(O)c(O)c1", "Prothrombin (Bos taurus)", "inhibition", "23%"),
    ("O=C1NC(=S)S/C1=C\\c1c(F)c(F)c(F)c(F)c1F", "Prothrombin (Bos taurus)", "inhibition", "25%"),
    ("C/C(=C1/SC(=S)NC1=O)c1ccccc1", "Prothrombin (Bos taurus)", "inhibition", "19%"),
    ("O=C1NC(=S)N/C1=C\\c1cc(Br)cs1", "Prothrombin (Bos taurus)", "inhibition", "15%"),
    ("COc1ccccc1/C=C1\\NC(=S)NC1=O", "Prothrombin (Bos taurus)", "inhibition", "15%"),
]

Q) Give inhibition for O=C1NC(=O)/C(=C/c2ccccc2)N1
A) inactive

Q) Give inhibition for O=C1NC(=O)/C(=C/c2ccc(Cl)s2)N1
A) 25%

Q) Give inhibition for O=C1NC(=S)S/C1=C\c1ccc(O)c(O)c1
A) 35%

Q) Give inhibition for COc1ccc(/C=C/C=C2\SC(=O)NC2=O)cc1
A) 11%

Q) Give inhibition for O=C1NC(=S)SC1Cc1ccccc1 (stereo not drawn)
A) inactive

---

# System: Escherichia coli
# PROTOCOL NOTES: Inhibition of Escherichia coli MurA using PEP as substrate assessed as inorganic phosphate release at 25 uM preincubated for 10 mins measured after 60 mins […]
Calls of active or inactive are those of the source.
METRIC NAME: inhibition

Solved cases (4 shown):
# COMPOUND, SYSTEM UNDER TEST, inhibition
records = [
    ("O=C1NC(=O)/C(=C/c2ccc(O)c(O)c2)S1", "Escherichia coli", "78%"),
    ("O=C1NC(=S)S/C1=C\\c1ccc(Br)s1", "Escherichia coli", "21%"),
    ("O=C1NC(=S)N/C1=C\\c1ccc([N+](=O)[O-])cc1", "Escherichia coli", "15%"),
    ("COc1ccc(/C=C2\\SC(=O)NC2=O)cc1OC", "Escherichia coli", "inactive"),
]

Q) Give inhibition for O=C1NC(=S)N/C1=C\C1CCCCC1
A) 16%

Q) Give inhibition for CCC/C=C/C1SC(=S)NC1=O (stereo not drawn)
A) 88%

Q) Give inhibition for COc1cc(/C=C2\SC(=S)NC2=O)ccc1O
A) 66%

Q) Give inhibition for O=C1NC(=S)N/C1=C\c1cc(Br)cs1
A) 57%

Q) Give inhibition for O=C1NC(=O)/C(=C/c2c(F)c(F)c(F)c(F)c2F)N1
A) 18%

Q) Give inhibition for O=C1NC(=O)/C(=C/c2c[nH]c3ccccc23)S1
A) inactive

Q) Give inhibition for O=C1NC(=O)/C(=C/c2ccc3ccccc3c2)S1
A) inactive

Q) Give inhibition for O=C1NC(=S)N/C1=C\c1ccc(Cl)cc1Cl
A) 22%

Q) Give inhibition for O=C1NC(=S)N/C1=C1/CCOc2ccccc21
A) 43%

Q) Give inhibition for O=C1NC(=S)N[C@@H]1Cc1ccccc1
A) 11%

Q) Give inhibition for O=C1NC(=O)[C@H](Cc2ccccc2)N1
A) inactive

Q) Give inhibition for O=C1CNC(=O)N1
A) inactive

Q) Give inhibition for COc1cccc(/C=C2\SC(=O)NC2=O)c1
A) 25%

Q) Give inhibition for O=C1NC(=O)/C(=C2\CCOc3ccccc32)S1
A) inactive

Q) Give inhibition for C/C(=C1/SC(=S)NC1=O)c1ccc(F)cc1
A) 69%

Q) Give inhibition for C/C(=C1/NC(=S)NC1=O)c1ccc2ccccc2c1
A) inactive

Q) Give inhibition for NCCCC[C@@H]1NC(=S)NC1=O
A) inactive

Q) Give inhibition for N#Cc1ccc(/C=C2\NC(=S)NC2=O)cc1
A) inactive

Q) Give inhibition for Cc1ccc(/C=C2\NC(=S)NC2=O)cc1
A) inactive

Q) Give inhibition for O=C1NC(=O)/C(=C/c2sccc2Br)N1
A) inactive

Q) Give inhibition for O=C1NC(=O)/C(=C/c2ccccc2)S1
A) inactive

Q) Give inhibition for O=C1NC(=S)S/C1=C\c1cccc(O)c1
A) 58%

Q) Give inhibition for Cn1cc(/C=C2\SC(=S)NC2=O)c2ccccc21
A) 18%

Q) Give inhibition for O=C1NC(=S)N/C1=C\c1ccc(Br)s1
A) 75%

---

# System: Escherichia coli
# PROTOCOL NOTES: Inhibition of Escherichia coli MetAP at 10 uM after 15 mins by fluorescence analysis
Active and inactive are the calls of the source.
METRIC NAME: inhibition

Solved cases (4 shown):
# MOLECULE, OBSERVED
data = [
    ("O=C1NC(=S)S/C1=C\\c1ccc(Br)s1", "inactive"),
    ("O=C1NC(=O)/C(=C/c2ccco2)N1", "inactive"),
    ("COc1ccccc1/C=C1\\NC(=S)NC1=O", "18%"),
    ("O=C1NC(=S)N/C1=C\\c1cnc[nH]1", "83%"),
]

Q) Give inhibition for O=C1NC(=S)NC1Cc1cccs1 (stereo not drawn)
A) inactive

Q) Give inhibition for O=C1NC(=S)N/C1=C\c1ccc2ccccc2c1
A) 15%

Q) Give inhibition for Cn1cc(/C=C2\SC(=O)NC2=O)c2ccccc21
A) inactive

Q) Give inhibition for CC(=O)N1C(=S)NC(=O)[C@@H]1Cc1ccccc1
A) 12%

Q) Give inhibition for O=C1NC(=O)/C(=C2\CCOc3ccccc32)S1
A) 11%

Q) Give inhibition for O=C1NC(=S)N/C1=C\c1ccc(Cl)cc1Cl
A) 15%

Q) Give inhibition for COc1cccc(/C=C2\NC(=O)NC2=O)c1
A) inactive

Q) Give inhibition for O=C1NC(=O)/C(=C/c2ccco2)S1
A) inactive

Q) Give inhibition for CC(=O)N1C(=S)NC(=O)[C@@H]1CCCCN
A) inactive

---

# System: Dengue virus
# PROTOCOL NOTES: Inhibition of Dengue virus NS2B-NS3 protease using Abz-NleKRRS-3-(NO2)Y as substrate at 50 uM preincubated for 15 mins measured every sec for 15 mins by fluorimetric analysis
The source made the active and inactive calls.
METRIC NAME: inhibition

Solved cases (5 shown):
# SMILES TEXT, inhibition
measured = [
    ("O=C1NC(=O)[C@@H](Cc2ccccc2)N1", "inactive"),
    ("O=C1NC(=S)N/C1=C\\c1c[nH]c2ccccc12", "55%"),
    ("O=C1CSC(=S)N1", "14%"),
    ("Cc1ccc(/C=C2\\NC(=S)NC2=O)cc1", "31%"),
    ("O=C1NC(=S)S/C1=C\\C1CCCCC1", "22%"),
]

Q) Give inhibition for COc1ccccc1/C=C1\SC(=O)NC1=O
A) 17%

Q) Give inhibition for O=C1NC(=S)N[C@H]1Cc1ccccc1
A) inactive

Q) Give inhibition for O=C1NC(=S)N/C1=C\c1ccccn1
A) 47%

---

# System: Dengue virus
# PROTOCOL NOTES: Inhibition of Dengue virus NS2B-NS3 protease using Abz-NleKRRS-3-(NO2)Y as substrate at 50 uM preincubated for 15 mins measured every sec for 15 mins by fluorimetric analysis
Calls of active or inactive are those of the source.
METRIC NAME: inhibition

# SMILES TEXT, inhibition
records = [
    ("O=C1NC(=O)/C(=C/c2ccc([N+](=O)[O-])cc2)S1", "inactive"),
    ("CC(=O)N1C(=S)NC(=O)[C@@H]1CC(C)C", "inactive"),
    ("COc1ccc(/C=C2\\NC(=O)NC2=O)cc1", "24%"),
    ("COc1ccc(/C=C2\\SC(=O)NC2=O)cc1OC", "16%"),
]

Q) State recorded inhibition with Dengue virus, entry O=C1NC(=O)/C(=C/C2CCCCC2)S1 , no comment.
A) 25%

Q) State recorded inhibition with Dengue virus, entry C/C(=C1/NC(=S)NC1=O)c1cccs1 , no comment.
A) 43%

All figures here come from ChEMBL document CHEMBL1955761.
